MEASUREMENT TARGET: human CB1 receptors (Homo sapiens (Human), UniProt P21554)
Sequence (P21554 whole entry): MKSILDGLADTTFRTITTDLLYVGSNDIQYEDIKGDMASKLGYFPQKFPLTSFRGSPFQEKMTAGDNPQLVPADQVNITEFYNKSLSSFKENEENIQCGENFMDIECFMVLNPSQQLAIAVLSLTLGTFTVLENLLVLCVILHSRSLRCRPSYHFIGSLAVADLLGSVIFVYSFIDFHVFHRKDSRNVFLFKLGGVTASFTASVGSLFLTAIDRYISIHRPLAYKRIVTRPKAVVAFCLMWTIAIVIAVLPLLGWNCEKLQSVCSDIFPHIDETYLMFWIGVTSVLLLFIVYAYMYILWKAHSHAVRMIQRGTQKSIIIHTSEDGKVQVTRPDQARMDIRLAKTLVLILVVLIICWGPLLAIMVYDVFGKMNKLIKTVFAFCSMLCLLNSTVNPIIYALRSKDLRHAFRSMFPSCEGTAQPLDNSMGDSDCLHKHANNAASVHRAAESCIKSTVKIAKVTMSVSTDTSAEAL
MEASUREMENT PROTOCOL: cAMP assay, CHO cells expressing human CB1 receptors
Format: cell-based
The molecules listed here are annotated with their EC50.

- MOLECULE: "CC(C)CC(C)(CO)NC(=O)c1ccc(N2CC(F)(F)C2)c(OCC2CC2)n1 (centres unmarked) [Example 273]"
  MEASUREMENT TARGET: "human CB1 receptors (Homo sapiens (Human), UniProt P21554)"
  UNIT: "nM"
  QUALIFIER: "="
  EC50: 1250
- MOLECULE: "Cc1nc(C(CC(C)C)NC(=O)c2ccc(N3CC(F)(F)C3)c(OCC3CC3)n2)no1 (centres unmarked) [Example 272]"
  MEASUREMENT TARGET: "human CB1 receptors (Homo sapiens (Human), UniProt P21554)"
  UNIT: "nM"
  QUALIFIER: ">"
  EC50: 10000
- MOLECULE: "CC(C)C[C@H](NC(=O)c1ccc(C2CC2)c(OC(C)C(F)(F)F)n1)C(N)=O (some centres unmarked) [Example 372]"
  MEASUREMENT TARGET: "human CB1 receptors (Homo sapiens (Human), UniProt P21554)"
  UNIT: "nM"
  QUALIFIER: ">"
  EC50: 10000
- MOLECULE: "CNC(=O)[C@@H](NC(=O)c1ccc(C2CC2)c(S(=O)(=O)CC(C)C)n1)C(C)(C)C [Example 364]"
  MEASUREMENT TARGET: "human CB1 receptors (Homo sapiens (Human), UniProt P21554)"
  UNIT: "nM"
  QUALIFIER: ">"
  EC50: 10000
- MOLECULE: "CC(C)(NC(=O)c1ccc(C2CC2)c(-c2cccc(Cl)c2)n1)c1nccs1 [Example 116]"
  MEASUREMENT TARGET: "human CB1 receptors (Homo sapiens (Human), UniProt P21554)"
  UNIT: "nM"
  QUALIFIER: "="
  EC50: 1450
